# targetOrSystem: UniProt P04629
# Sequence (P04629 whole entry, looked up): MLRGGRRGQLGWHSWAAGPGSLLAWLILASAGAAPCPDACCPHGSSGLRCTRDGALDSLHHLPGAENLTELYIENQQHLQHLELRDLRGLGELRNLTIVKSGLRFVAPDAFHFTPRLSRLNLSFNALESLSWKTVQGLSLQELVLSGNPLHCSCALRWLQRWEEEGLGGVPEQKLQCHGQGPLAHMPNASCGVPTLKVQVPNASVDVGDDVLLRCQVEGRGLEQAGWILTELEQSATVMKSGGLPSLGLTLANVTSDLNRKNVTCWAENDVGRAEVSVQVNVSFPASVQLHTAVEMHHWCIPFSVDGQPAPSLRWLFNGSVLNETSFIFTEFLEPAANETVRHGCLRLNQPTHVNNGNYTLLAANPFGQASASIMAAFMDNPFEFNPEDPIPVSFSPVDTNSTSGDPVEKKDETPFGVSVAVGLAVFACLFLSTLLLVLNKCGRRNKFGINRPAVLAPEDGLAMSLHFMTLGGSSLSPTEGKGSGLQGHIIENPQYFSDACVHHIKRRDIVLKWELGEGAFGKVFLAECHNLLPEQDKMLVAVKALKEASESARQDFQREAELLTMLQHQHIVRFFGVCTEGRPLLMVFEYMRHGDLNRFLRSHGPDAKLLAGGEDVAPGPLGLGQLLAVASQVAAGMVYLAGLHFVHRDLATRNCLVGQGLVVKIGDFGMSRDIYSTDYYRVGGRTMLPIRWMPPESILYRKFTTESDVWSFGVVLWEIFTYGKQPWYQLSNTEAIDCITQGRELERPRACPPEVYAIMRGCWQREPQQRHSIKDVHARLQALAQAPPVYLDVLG
# testDetails: radiometric filter-binding kinase assay
# conditionContext: compound 1.0 µM
valueKind: residual activity (%)
Numeric answer only, unit % assumed.

[[record]]
compound = "CNC(=O)C1[C@H]2O[C@@](C)([C@@H]1N)n1c3ccccc3c3c4c(c5c6ccccc6n2c5c31)C(=O)NC4 (some centres undefined)"
units = "%"
numericresult = 2

[[record]]
compound = "O=C(NOC[C@H](O)CO)c1ccc(F)c(F)c1Nc1ccc(I)cc1Cl"
units = "%"
numericresult = 72

[[record]]
compound = "O=C(N[C@@H](COc1ccc2[nH]c(=O)[nH]c2c1)c1ccccc1)c1cccn(Cc2ccc(F)c(F)c2)c1=O"
units = "%"
numericresult = 98


Recall the reported residual activity of "COc1cc2ncn(-c3cc(OCc4ccccc4S(C)(=O)=O)c(C#N)s3)c2cc1OC" when tested on UniProt P04629.
30

Recall the reported residual activity of "FC(F)(F)c1ccc(-c2ccc(Oc3cncc4sc(-c5nn[nH]n5)cc34)cc2)cc1" when tested on UniProt P04629.
104

Recall the reported residual activity of "O=C(Nc1cccnc1)c1cc(-c2ccnc(F)c2)ccc1OCc1ccccc1" when tested on UniProt P04629.
80

---

# targetOrSystem: SYK (human)
# testDetails: radiometric filter-binding kinase assay
# conditionContext: compound 10.0 µM
Reported values of residual activity for individual entries
Numeric answer only, unit % assumed.

// known answers, use as guide
[[record]]
molecule = "O=C1Nc2nc(-c3c(O)cccc3OCC3CC3)cc(C3CCCNC3)c2CO1 (stereo not given)"
numericresult = 91

[[record]]
molecule = "CCNc1nc(Nc2cc(F)c(C(=O)N3CCOCC3)cc2OC)ncc1C(F)(F)F"
numericresult = 33

[[record]]
molecule = "NC(=O)c1ccc(-c2ccc(Oc3cncc4sc(-c5nn[nH]n5)cc34)cc2)cc1"
numericresult = 95

[[record]]
molecule = "Nc1cccc2c1CN(C1CCC(=O)NC1=O)C2=O (stereo not given)"
numericresult = 114


Give the reported value of residual activity for this record: "CCOC(=O)c1ccc(N2NC(=O)/C(=C/c3ccc([N+](=O)[O-])o3)C2=O)cc1"
92

Give the reported value of residual activity for this record: "N#Cc1c(O)c2c(-c3ccc(-c4ccccc4O)cc3)csc2[nH]c1=O"
106

Give the reported value of residual activity for this record: "O=C(O)c1cc(N=Nc2ccc(S(=O)(=O)Nc3ccccn3)cc2)ccc1O"
107

Give the reported value of residual activity for this record: "O=C1NC(=S)N[C@@H]1Cc1c[nH]c2ccccc12"
116

Give the reported value of residual activity for this record: "Cc1ccc2c(c1)C(=O)[C@@]1(O)CCN(c3ccccc3)C1=N2"
105

Give the reported value of residual activity for this record: "O=C(N[C@@H](COc1ccc2[nH]c(=O)[nH]c2c1)c1ccccc1)c1cccn(Cc2ccc(F)c(F)c2)c1=O"
82

---

# targetOrSystem: PHKG1 (human)
# testDetails: radiometric filter-binding kinase assay
# conditionContext: compound 1.0 µM
Reported values of residual activity for individual entries
Numeric answer only, unit % assumed.

[[record]]
compound = "O=C(Nc1nc2cc(C(F)(F)F)cc(NC3CC3)n2n1)c1cccnc1"
numericresult = 92


Give the reported value of residual activity for this record: "O=C(O)c1cc(N=Nc2ccc(S(=O)(=O)Nc3ccccn3)cc2)ccc1O"
104

Give the reported value of residual activity for this record: "Cc1ccc(Sc2cnc(Nc3cccc(Br)n3)s2)cc1C(=O)N1CCN(C(=O)CN)CC1"
15

Give the reported value of residual activity for this record: "c1ccc2c(-c3cnn4cc(-c5ccc(N6CCNCC6)cc5)cnc34)ccnc2c1"
60

Give the reported value of residual activity for this record: "NC(=O)c1ccc(-c2ccc(Oc3cncc4sc(-c5nn[nH]n5)cc34)cc2)cc1"
100

Give the reported value of residual activity for this record: "NS(=O)(=O)OC[C@@H]1C[C@@H](n2ccc3c(N[C@H]4CCc5ccccc54)ncnc32)C[C@@H]1O"
109

Give the reported value of residual activity for this record: "O=C(N[C@@H](COc1ccc2[nH]c(=O)[nH]c2c1)c1ccccc1)c1cccn(Cc2ccc(F)c(F)c2)c1=O"
117

Give the reported value of residual activity for this record: "Cc1cc(NC(=O)c2cccc(NC(=O)/C=C/CN(C)C)c2)ccc1Nc1nccc(-c2cccnc2)n1"
86

Give the reported value of residual activity for this record: "COc1cc2ncn(-c3cc(OCc4ccccc4S(C)(=O)=O)c(C#N)s3)c2cc1OC"
5

Give the reported value of residual activity for this record: "O=C(O)c1ccc(-c2c[nH]c3ncc(-c4ccccc4)cc23)cc1C1CCCC1"
3
